System: Shh Light II
Experiment: Inhibition of purmorphamine-induced osteoblast differentiation in mouse Shh Light II cells preincubated for 1 hr followed by purmorphamine addition for 48 hrs by luminescence based reporter gene assay
Assay type: functional, cell-based
Give measured pIC50 for each item. Keep answers brief.
Numbers only, as −log10 of the molar value.

COc1ccccc1CCNC(=O)CCCn1nc(C)c2c(C)n(-c3ccc(C)cc3)nc2c1=O 5.85
CN(CCCNC(=O)c1nn(C)c2c1CS(=O)(=O)c1ccccc1-2)Cc1ccccc1 5.66

We now examine a further compound.
Recorded pIC50 for COCCNC(=O)C1CCN(C(=O)c2cc3sccc3n2Cc2ccc(F)cc2)CC1 with Shh Light II, please? 6.33
